biological target: SaDHPS (Staphylococcus aureus, UniProt O05701, R204H/P216R); settings: read-out: SaDHPS + SIZ-2FITC / IC50 (ng/mL); tracer SIZ-2FITC; 4 mM DHPPP, 40 mM Mg2+ in reaction buffer, pH 8.0, 37 C, 2 min
endpoint_name: IC50 (nM)
Report only the number, with the unit nM understood.

q: For the compound NS(=O)(=O)c1ccccc1 [BSN] , what IC50 is on record?
a: 55.1

Source listed as paper PMC10534214.
